Source of measurements: patent US7807678B2

Target: MC5-R (Homo sapiens, UniProt P33032)
Sequence (P33032 whole entry): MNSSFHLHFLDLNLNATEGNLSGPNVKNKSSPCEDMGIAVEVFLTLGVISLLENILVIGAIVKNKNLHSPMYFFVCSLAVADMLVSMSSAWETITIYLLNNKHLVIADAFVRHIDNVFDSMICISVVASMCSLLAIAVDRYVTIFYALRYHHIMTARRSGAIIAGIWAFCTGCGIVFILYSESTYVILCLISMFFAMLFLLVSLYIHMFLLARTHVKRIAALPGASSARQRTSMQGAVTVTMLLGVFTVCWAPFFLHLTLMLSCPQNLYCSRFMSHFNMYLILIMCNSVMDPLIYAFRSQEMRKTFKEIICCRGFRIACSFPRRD
Experiment: Competitive inhibition binding assay, 125I-NDP-α-MSH, MC5-R
Design: expressed in transfected cells
Conditions: 1 μM compound; inhibition of 125I-NDP-α-MSH binding; mean of triplicates; results less than 0% reported as 0%
# Inhibition at 1 μM MC5-R values compiled below
Provide the reading as a plain figure in %.

INSERT INTO assay_data (compound, measurement) VALUES
  ('NCCCC[C@H]1C(=O)N(CCOc2ccc3ccccc3c2)CCN1C(=O)[C@@H](Cc1ccc(Cl)cc1)NC(=O)[C@@H](N)COCc1ccccc1', 72),
  ('N=C(N)NCCCC[C@H]1C(=O)N(CCc2ccc3ccccc3c2)CCN1C(=O)[C@H](N)Cc1ccc2ccccc2c1', 57),
  ('N[C@H](Cc1ccc(Cl)cc1Cl)C(=O)N1CCN(CCc2ccc3ccccc3c2)C(=O)[C@@H]1CCCNc1nncs1', 32),
  ('N[C@H](Cc1ccc(Cl)cc1Cl)C(=O)N1CCN(CCc2ccc3ccccc3c2)C(=O)[C@@H]1CCCCNC(=O)c1cccnc1', 13),
  ('N=C(N)NCCC[C@H]1C(=O)N(CCc2c[nH]c3ccccc23)CCN1C(=O)[C@@H](Cc1ccccc1Cl)NC(=O)[C@@H]1Cc2ccccc2CN1', 62),
  ('NCCCNC(=O)[C@@H]1C[C@@H](OCc2ccccc2)CN1C(=O)[C@@H](Cc1ccccc1)NC(=O)C1(N)CCCC1', 0),
  ('COC(=O)NCCC[C@H]1C(=O)N(CCc2ccc3ccccc3c2)CCN1C(=O)[C@@H](Cc1ccc(Cl)cc1Cl)NC(=O)[C@@H](N)COCc1ccccc1', 20),
  ('N[C@H](Cc1ccc(Cl)cc1Cl)C(=O)N1CCN(CCc2ccc3ccccc3c2)C(=O)[C@@H]1CCCNc1cc[nH]n1', 12);

What value of Inhibition at 1 μM MC5-R has been reported for the following compound? N=C(N)NCCC[C@H]1C(=O)N(CCc2c[nH]c3ccccc23)CCN1C(=O)[C@@H](Cc1ccc(Cl)cc1)NC(=O)[C@@H](N)COCc1ccccc1
81

What value of Inhibition at 1 μM MC5-R has been reported for the following compound? NCCCC[C@H]1C(=O)N2C(CC[C@@H]2COc2ccc3c(c2)CCCC3)N1C(=O)[C@@H](Cc1ccc(Cl)cc1)NC(=O)[C@@H](N)COCc1ccccc1 (stereo partly shown)
56

What value of Inhibition at 1 μM MC5-R has been reported for the following compound? NCCCC[C@H]1C(=O)N(CCc2ccc3ccccc3c2)CCN1C(=O)[C@@H](Cc1ccc(Cl)cc1Cl)NCc1ccc2ccccc2c1
2

What value of Inhibition at 1 μM MC5-R has been reported for the following compound? NCCCC[C@H]1C(=O)N(CCc2ccc3ccccc3c2)CCN1C(=O)[C@@H](Cc1ccc(Cl)cc1Cl)NC(=O)[C@H]1CC[C@@H](c2ccccc2)N1
46

What value of Inhibition at 1 μM MC5-R has been reported for the following compound? N=C(N)NCCCC[C@H]1C(=O)N(CCc2ccc3ccccc3c2)CCN1C(=O)[C@H](N)Cc1ccc(Cl)cc1Cl
42

====

# Inhibition at 1 μM MC4-R values compiled below
Target: MC4-R (Homo sapiens)
Sequence (P32245 whole entry): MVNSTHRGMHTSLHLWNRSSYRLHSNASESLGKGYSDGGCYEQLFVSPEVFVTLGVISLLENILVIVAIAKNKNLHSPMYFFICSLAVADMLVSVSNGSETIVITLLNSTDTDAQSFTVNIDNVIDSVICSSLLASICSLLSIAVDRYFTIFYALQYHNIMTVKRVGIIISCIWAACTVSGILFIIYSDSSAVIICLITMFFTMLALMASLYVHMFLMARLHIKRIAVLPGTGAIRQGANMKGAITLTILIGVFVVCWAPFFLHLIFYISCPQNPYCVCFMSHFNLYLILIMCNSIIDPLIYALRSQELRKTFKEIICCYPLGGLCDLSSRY
Assay: Competitive inhibition binding assay, 125I-NDP-α-MSH, MC4-R
Parameters: expressed in transfected cells
Conditions: 1 μM compound; inhibition of 125I-NDP-α-MSH binding; mean of triplicates; results less than 0% reported as 0%
Reply with the number, then its unit.

INSERT INTO measurements (compound, tested_system, measurement) VALUES
  ('N=C(N)NCCC[C@H]1C(=O)N(CCc2ccc3ccccc3c2)CCN1C(=O)[C@H](N)Cc1ccc(Cl)cc1Cl', 'MC4-R (Homo sapiens)', '95%'),
  ('NCCCC[C@H]1C(=O)N2C(CC[C@@H]2COc2ccc3ccccc3c2)N1C(=O)[C@@H](Cc1ccccc1Cl)NC(=O)C1(N)CCc2ccccc21 (stereo partly drawn)', 'MC4-R (Homo sapiens)', '12%');

Okay, now this compound:
What value of Inhibition at 1 μM MC4-R has been reported for the following compound? CNC(=N)NCCC[C@H]1C(=O)N(CCc2ccc3ccccc3c2)CCN1C(=O)[C@H](N)Cc1ccc(Cl)cc1Cl
93%
